Assay: in vitro
Conditions: African green monkey
reported-metric: CC50 (µM)
Give just the number in µM; leave the unit off.

Solved entries (count: 5):
molecule: COc1cc(NC(C(=O)N2CCc3cc(OC)c(C(F)(F)F)cc32)c2ccc(Cl)cc2)cc(OCCO)c1 (racemic) [Compound 7]
CC50 [µM]: 11
//
molecule: COc1cc(NC(C(=O)N2CCc3ccc(C(F)(F)F)cc32)c2ccc(Cl)cc2OC)cc(OCCO)c1 (racemic) [Compound 1]
CC50 [µM]: 13
//
molecule: COc1cc(NC(C(=O)N2CCc3ccc(OC(F)(F)F)cc32)c2ccc(Cl)cc2F)cc(OCCO)c1 (racemic) [Compound 6]
CC50 [µM]: 14
//
molecule: COc1cc(NC(C(=O)N2CCc3cc(OC)c(C(F)(F)F)cc32)c2ccc(Cl)cc2)cc(OCCO)c1 (single isomer, unassigned) [Compound 7A]
CC50 [µM]: 21
//
molecule: COc1cc(NC(C(=O)N2CCc3c(C)cc(OC(F)(F)F)cc32)c2ccc(Cl)cc2)cc(OCCO)c1 (single isomer, unassigned) [Compound 9A]
CC50 [µM]: 13

Give the measured CC50 for COc1cc(NC(C(=O)N2CCc3ccc(C(F)(F)F)cc32)c2ccc(Cl)cc2)cc(OCCO)c1 (racemic) [Compound 4]
9.7

---

Experiment: in vitro
Format: cell-based
Conditions: African green monkey
Procedure: Tetravalent reverse transcriptase quantitative-PCR (RT-qPCR) assay The antiviral activity of the compounds of the invention was tested against DENV-1 strain TC974#666 (NCPV), DENV-2 strain 16681, DENV-3 strain H87 (NCPV) and DENV-4 strain H241 (NCPV) in a RT-qPCR assay. Therefore, Vero cells were infected with either DENV-1, or -2, or -3, or -4 in the presence or absence of test compounds. […] In addition, CC50 values are determined based on the Cp values acquired for the housekeeping gene β-actin. […]
reported-metric: CC50 at 3 days (µM)
Give just the number in µM; leave the unit off.

Solved entries (count: 3):
compound: COc1cc(NC(C(=O)N2CCc3cc(OC)c(C(F)(F)F)cc32)c2ccc(Cl)cc2)cc(OCCO)c1 (single isomer, unassigned) [Compound 7B]
uom: µM
CC50 at 3 days: 4.1
//
compound: COc1cc(NC(C(=O)N2CCc3ccc(C(F)(F)F)cc32)c2ccc(Cl)cc2F)cc(OCCO)c1 (single isomer, unassigned) [Compound 2B]
uom: µM
CC50 at 3 days: 4.8
//
compound: COc1cc(NC(C(=O)N2CCc3ccc(OC(F)(F)F)cc32)c2ccc(Cl)cc2OC)cc(OCCO)c1 (single isomer, unassigned) [Compound 5A]
uom: µM
CC50 at 3 days: 4.7

Alright, here's another compound for you.
Give the measured CC50 at 3 days for COc1cc(NC(C(=O)N2CCc3ccc(OC(F)(F)F)cc32)c2ccc(Cl)cc2F)cc(OCCO)c1 (single isomer, unassigned) [Compound 6B]
4.8

---

Listed here: items and their measured pEC50.
Test system: DENV-3 strain H87
Test: Tetravalent RT-qPCR assay, serotype 3
Assay type: cell-based, Dengue virus
Details: Dengue virus, DENV3, Vero, 72 h, RT-qPCR serotype 3 H87, Protocol A, Vero cells, day 3
To interpret pEC50, take it as minus log10 of a concentration measured in moles per litre.

Solved entries (count: 2):
compound: COc1cc(NC(C(=O)N2CCc3c(C)cc(OC(F)(F)F)cc32)c2ccc(Cl)cc2)cc(OCCO)c1 (single isomer, unassigned)
system: DENV-3 strain H87
reported-measurement: 7.80
--
compound: COc1cc(NC(C(=O)N2CCc3ccc(OC(F)(F)F)cc32)c2ccc(Cl)cc2F)cc(OCCO)c1 (single isomer, unassigned)
system: DENV-3 strain H87
reported-measurement: 7.55

Alright, here's another compound for you.
Give the measured pEC50 for COc1cc(NC(C(=O)N2CCc3ccc(OC(F)(F)F)cc32)c2ccc(Cl)cc2OC)cc(OCCO)c1 (single isomer, unassigned)
7.70
